src = paper PMC11475369

Consider the following compounds and their measured Percentage of cells in necrosis readings.
test system: HT29 cells; test: Flow cytometry annexin V-FITC/PI, cell death types in HT29 cells; type: cell-based, human; details: HT29, 25 μg/mL, 24 h

## Input // lookup Percentage of cells in necrosis for `C=C(C)[C@@H]1CCC(C)=C[C@H]1c1c(O)cc(CCCCC)cc1O`
## Output 0.67 ± 0.22%

## Input // next record `CCCCCc1cc(O)cc(O)c1C/C=C(\C)CCC=C(C)C`
## Output 19.75 ± 2.50 %

## Input For CCCCCc1cc2c3c(c1)OC(C)(C)C1CCC(C)(CC31)O2 (stereo not shown) then?
## Output 3.96 ± 0.40 %

## Input What would you report for CCCCCc1cc(O)c2c(c1)OC(C)(CCC=C(C)C)C=C2 (stereo not shown) ?
## Output 1.18 ± 0.39%

* * *

system: HT29 cells; assay: MTT assay, metabolic activity of HT29 cells; assay type: cell-based; details: Homo sapiens, HT-29; HT29 colon tumor cells, 24 h incubation; read-out: IC50 Values (MTT method)
# IC50 per record follows
Unit µg/mL implied. Number only.

Use these answered entries as a reference point.
{"molecule": "CCCCCc1cc(O)cc(O)c1C/C=C(\\C)CCC=C(C)C [abn-CBG, abnormal cannabigerol]", "IC50 [µg/mL]": 19.6}
{"molecule": "CCCCCc1cc(O)c2c(c1)OC(C)(CCC=C(C)C)C=C2 (stereo not shown) [CBC, cannabichromene]", "IC50 [µg/mL]": 176}
{"molecule": "C=C(C)[C@@H]1CCC(C)=C[C@H]1c1c(O)cc(CCCCC)cc1O [CBD, cannabidiol]", "IC50 [µg/mL]": 57.5}

## Input Requested field: IC50. Item: CCCCCc1cc2c3c(c1)OC(C)(C)C1CCC(C)(CC31)O2 (stereo not shown) [CBT, cannabicitran]
## Output 69.1

* * *

system: CCD 841 CoTr cells; assay: Flow cytometry (PI) cell cycle analysis of CCD 841 CoTr cells; format: cell-based, human; conditions: 25 μg/mL, 24 h
endpoint-name: Percentage of cells in G1 phase (%)
Reply numerically in %, unit not repeated.

These solved cases illustrate the format of a correct answer.
{"compound": "C=C(C)[C@@H]1CCC(C)=C[C@H]1c1c(O)cc(CCCCC)cc1O", "result-unit": "%", "Percentage of cells in G1 phase": 21.89}
{"compound": "CCCCCc1cc2c3c(c1)OC(C)(C)C1CCC(C)(CC31)O2 (stereo not shown)", "result-unit": "%", "Percentage of cells in G1 phase": 28.81}

## Input Provide the documented Percentage of cells in G1 phase with CCD 841 CoTr cells as the system for CCCCCc1cc(O)c2c(c1)OC(C)(CCC=C(C)C)C=C2 (stereo not shown)
## Output 32.31

## Input Similarly, `CCCCCc1cc(O)cc(O)c1C/C=C(\C)CCC=C(C)C` ?
## Output 11.63

* * *

test system: HT29 cells; assay: Flow cytometry annexin V-FITC/PI, cell death types in HT29 cells; assay type: cell-based, human; details: HT29, 25 μg/mL, 24 h
endpoint-name: Reduction in the number of viable cells compared to the control (%)
Please state the figure in %; there is no need to write the unit.

The examples below pair each entry with its known result.
{"compound": "CCCCCc1cc(O)cc(O)c1C/C=C(\\C)CCC=C(C)C [abn-CBG, abnormal cannabigerol]", "study-target": "HT29 cells", "quantitative-result": 90.42}
{"compound": "CCCCCc1cc(O)c2c(c1)OC(C)(CCC=C(C)C)C=C2 (stereo not shown) [CBC, cannabichromene]", "study-target": "HT29 cells", "quantitative-result": 7.13}
{"compound": "CCCCCc1cc2c3c(c1)OC(C)(C)C1CCC(C)(CC31)O2 (stereo not shown) [CBT, cannabicitran]", "study-target": "HT29 cells", "quantitative-result": 52.25}

From here, focus on the item given below.
## Input Field request: Reduction in the number of viable cells compared to the control | item: C=C(C)[C@@H]1CCC(C)=C[C@H]1c1c(O)cc(CCCCC)cc1O [CBD, cannabidiol]
## Output 13.62

* * *

system: CCD 841 CoTr cells; assay: MTT assay, metabolic activity of CCD 841 CoTr cells; format: cell-based, human; conditions: Homo sapiens, CCD-841, 24 h, CCD 841 CoTr colon normal cells, 24 h incubation; read-out: IC50 Values (MTT method)
endpoint-name: IC50 (µg/mL)
# output: bare number, implied unit µg/mL

## Input Look up IC50 for this compound: CCCCCc1cc2c3c(c1)OC(C)(C)C1CCC(C)(CC31)O2 (stereo not shown)
## Output 55.5

## Input Cool, now `CCCCCc1cc(O)cc(O)c1C/C=C(\C)CCC=C(C)C`
## Output 15.3

## Input Also `C=C(C)[C@@H]1CCC(C)=C[C@H]1c1c(O)cc(CCCCC)cc1O` , if possible.
## Output 42.6

## Input Again, but for CCCCCc1cc(O)c2c(c1)OC(C)(CCC=C(C)C)C=C2 (stereo not shown)
## Output 75.2

* * *

tested on: CCD 841 CoTr cells; assay: Flow cytometry annexin V-FITC/PI, cell death types in CCD 841 CoTr cells; type: cell-based, human; conditions: 25 μg/mL, 24 h
endpoint-name: Reduction in the number of viable normal cells compared to the control (%)
Output spec: scalar in %, unitless text.

{"compound": "CCCCCc1cc(O)cc(O)c1C/C=C(\\C)CCC=C(C)C", "result-unit": "%", "quantitative-result": 66.79}
{"compound": "C=C(C)[C@@H]1CCC(C)=C[C@H]1c1c(O)cc(CCCCC)cc1O", "result-unit": "%", "quantitative-result": 12.95}

Here is another compound to look at.
## Input Would you mind telling me what Reduction in the number of viable normal cells compared to the control value was observed for CCCCCc1cc2c3c(c1)OC(C)(C)C1CCC(C)(CC31)O2 (stereo not shown) ?
## Output 5.02

* * *

assay: Flow cytometry annexin V-FITC/PI, cell death types in CCD 841 CoTr cells; assay type: cell-based, human; conditions: human, CCD 841 CoTr cells (normal cells), read-out: Percentage of viable cells
endpoint-name: viability at 24 h, 25 μg/mL (%)
Give the value, in units of %, as a plain number.

{"compound": "C=C(C)[C@@H]1CCC(C)=C[C@H]1c1c(O)cc(CCCCC)cc1O", "quantitative-result": 79.4}
{"compound": "CCCCCc1cc2c3c(c1)OC(C)(C)C1CCC(C)(CC31)O2 (stereo not shown)", "quantitative-result": 87.3}
{"compound": "CCCCCc1cc(O)c2c(c1)OC(C)(CCC=C(C)C)C=C2 (stereo not shown)", "quantitative-result": 91.4}

## Input May I ask what viability at 24 h, 25 μg/mL has been recorded for `CCCCCc1cc(O)cc(O)c1C/C=C(\C)CCC=C(C)C` ?
## Output 25.5

* * *

# Percentage of cells in early apoptosis listing for each entry below
tested on: HT29 cells; experiment: Flow cytometry annexin V-FITC/PI, cell death types in HT29 cells; format: cell-based, human; settings: HT29, 25 μg/mL, 24 h
Give the quantity in %, number only.

{"compound": "CCCCCc1cc2c3c(c1)OC(C)(C)C1CCC(C)(CC31)O2 (stereo not shown) [CBT, cannabicitran]", "Percentage of cells in early apoptosis, %": 0.91}
{"compound": "CCCCCc1cc(O)cc(O)c1C/C=C(\\C)CCC=C(C)C [abn-CBG, abnormal cannabigerol]", "Percentage of cells in early apoptosis, %": 3.65}

## Input Reported Percentage of cells in early apoptosis, compound C=C(C)[C@@H]1CCC(C)=C[C@H]1c1c(O)cc(CCCCC)cc1O [CBD, cannabidiol] : ____
## Output 0.77

## Input Also need CCCCCc1cc(O)c2c(c1)OC(C)(CCC=C(C)C)C=C2 (stereo not shown) [CBC, cannabichromene] , thanks.
## Output 1.36
